# systemName: T1, human GIP receptor (human, UniProt P48546 22-466)
# T1 sequence (looked up): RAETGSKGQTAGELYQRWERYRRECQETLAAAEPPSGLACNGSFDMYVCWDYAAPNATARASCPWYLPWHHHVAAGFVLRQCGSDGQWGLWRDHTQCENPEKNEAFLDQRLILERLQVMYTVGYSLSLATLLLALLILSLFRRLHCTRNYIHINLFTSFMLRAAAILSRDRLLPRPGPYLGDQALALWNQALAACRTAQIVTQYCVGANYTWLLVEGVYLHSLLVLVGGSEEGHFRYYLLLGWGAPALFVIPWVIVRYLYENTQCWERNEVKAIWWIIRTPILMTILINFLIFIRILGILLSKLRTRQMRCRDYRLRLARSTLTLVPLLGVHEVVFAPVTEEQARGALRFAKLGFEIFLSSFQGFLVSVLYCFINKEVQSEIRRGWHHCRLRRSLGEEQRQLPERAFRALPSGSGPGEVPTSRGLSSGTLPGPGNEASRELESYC
# methodNotes: cell-based or functional assay
Bridges are numbered along the chain shown (N, C = ends). Where no end group is shown, it is not given here. [ ]: non-standard residue; d: D form. The star is where a group is joined. Acetyl(2-(4-imidazolyl)) = O=C(Cc1c[nH]cn1)*; Aib = CC(C)(N)C(=O)O
Listed next: entries and their corresponding In vitro activity relative to native peptide (%) vs. GIP.
Give the quantity in %, number only.

- binder: "[Acetyl(2-(4-imidazolyl))][Aib]QGTFTSDYSKYLDECRAKEFVQWLLDHHPSSGQPPPS (bridge 16-20; not fully specified) [triple agonist of SEQ ID NO: 73]"
  measurement: 3

Request: # return recorded In vitro activity relative to native peptide (%) vs. GIP for entry {Acetyl(2-(4-imidazolyl))}-[Aib]QGTFTSDYSKYLDEKRQKEFVNWLLAQC (bridge 15-19) [triple agonist of SEQ ID NO: 86]
Response: 0.2

Request: Supply recorded In vitro activity relative to native peptide (%) vs. GIP for H[Aib]QGTFTSDYSKYLDEKRQKEFVQWLLDTC (bridge 16-20) [triple agonist of SEQ ID NO: 52] here.
Response: 0.3

Request: Specify measured In vitro activity relative to native peptide (%) vs. GIP for Y[Aib]QGTFTSDYSKYLDEKRAKEFVQWLLDHHPSSGQPPPSC (bridge 16-20) [triple agonist of SEQ ID NO: 42] .
Response: 7.8
